From: paper PMC7246297

Target: Nucleocapsid (N) protein (SARS-CoV-2, UniProt P0DTC9 1-419)
Assay: ELAA
RESULT_TYPE: binding result

{"BINDER": "N Aptamer 2 (78 nt) (ssDNA) DNA: GCAATGGTACGGTACTTCCGGATGCGGAAACTGGCTAATTGGTGAGGCTGGGGCGGTCGTGCAGCAAAAGTGCACGCT", "OBS_VALUE": "binds"}
{"BINDER": "N Aptamer 3 (57 nt) (ssDNA) DNA: GCAATGGTACGGTACTTCCGGATGCGGAAACTGGCTAATTGGTGAGGCTGGGGCGGT", "OBS_VALUE": "binds"}
{"BINDER": "N Aptamer 1 (88 nt) (ssDNA) DNA: GCAATGGTACGGTACTTCCGGATGCGGAAACTGGCTAATTGGTGAGGCTGGGGCGGTCGTGCAGCAAAAGTGCACGCTACTTTGCTAA", "OBS_VALUE": "binds"}
